- System: HL-60(TB) leukemia
- Experimental Protocol: NCI tumour cell line growth inhibition, 48 h
For each record, write down the corresponding TGI.

Given C=C(C)[C@@H]1CC[C@]2(C(=O)O)CC[C@]3(C)[C@H](CCC4[C@@]5(C)CC[C@H](C(=O)/C=C/c6ccc(O)c(O)c6)C(C)(C)[C@@H]5CC[C@]43C)[C@@H]12 (some centres not stated) , state its recorded TGI.
> 100 µM

Given `N#Cc1nc(C#N)n(C(=O)c2ccccc2)c1NC(=O)c1ccccc1` , state its recorded TGI.
> 100 µM

Given `COc1ccc(S(=O)(=O)N(C)CC(=O)O)cc1` , state its recorded TGI.
> 100 µM

Given `O=C1c2ccccc2-c2[nH]c3cn[nH]c(=O)c3c21` , state its recorded TGI.
> 100 µM

Given CCC1CNC(=O)CC1CC(=O)OC (configuration not stated) , state its recorded TGI.
> 100 µM

Given `Cc1ccc(-c2n[nH]c(=O)n2/N=C\c2ccccc2)cc1` , state its recorded TGI.
> 100 µM

Given `COc1cc2cc3c4c(cc(OC)c(OC)c4c2cc1OC)CCN3C(=O)CCC(=O)NCCCN(C)C` , state its recorded TGI.
56.9 µM

Given CCOC(=O)C(NC(=O)c1[nH]cnc1/N=N/N(C)C)C(C)C (configuration not stated) , state its recorded TGI.
> 100 µM

Given `O=C(/C=C/c1cccs1)c1ccccc1Cl` , state its recorded TGI.
30.4 µM

Given C/C=C1\C(=O)OC2CCN3CCC(COC(=O)C(C)(O)C(C)C1O)C23 (configuration not stated) , state its recorded TGI.
> 100 µM

Given `O=C(NNCc1ccc(Cl)cc1)Nc1cccc2ccccc12` , state its recorded TGI.
> 100 µM

Given Cc1ccc(S(=O)(=O)N(CC(O)COc2ccccc2)c2ccc(F)cc2F)cc1 (configuration not stated) , state its recorded TGI.
57.6 µM

Given CC1(C2CCC3(C)OC3C2)CO1 (configuration not stated) , state its recorded TGI.
> 100 µM

Given `CC(=O)Oc1ccc(/C=N/NC(N)=S)nc1` , state its recorded TGI.
8.44 µM

Given `S=c1nc(-c2ccnc(-c3nc(=S)[nH][nH]3)c2)[nH][nH]1` , state its recorded TGI.
> 100 µM

Given `CCSC(SCC)=C1C(=O)N(c2ccccc2)N=C1C` , state its recorded TGI.
7.35 µM

Given `CN1CCN(c2nc(-c3ccncc3)nc3sc4c(c23)CCCCCC4)CC1` , state its recorded TGI.
29.8 µM

Given O=C1c2ccccc2C(=O)N1c1nc(-c2ccc(Cl)cc2)cc(N2N=C(c3ccc(Br)cc3)CC2c2ccccc2)n1 (configuration not stated) , state its recorded TGI.
> 100 µM

Given `CC(=O)N(Cc1ccccc1)c1ccccc1I(=O)=O` , state its recorded TGI.
50.8 µM

Given `C=C1C(=O)O[C@H]2[C@H]3O[C@@H](C[C@@H]12)[C@](C)(O)CC[C@@H]1O[C@@]1(C)CCC[C@H]3C` , state its recorded TGI.
> 100 µM

Given `Oc1ccc(Cl)cc1Cc1cc(Cl)ccc1O` , state its recorded TGI.
6.05 µM

Given CC(=O)C1C(=O)N(C(C)C)C[C@@H]2CCC(=O)C[C@H]12 (some centres not stated) , state its recorded TGI.
> 100 µM

* * *

- System: SK-MEL-5 melanoma
- Experimental Protocol: NCI tumour cell line growth inhibition, 48 h
Observed Property: log10(TGI) (log10 of the value in µM)
Hi team, quick reminder: these entries are log10 of TGI (µM).

Given `CN(C)c1ccc(/C=C2\N=C(c3ccccc3)N(c3ccc4c(c3)Sc3cc(N5C(=O)/C(=C/c6ccc(N(C)C)cc6)N=C5c5ccccc5)ccc3N4)C2=O)cc1` , state its recorded log10(TGI).
1.51

Given `O=C(Cc1csc2nc(-c3ccc(Br)cc3)cn12)N/N=C/c1ccc(O)cc1` , state its recorded log10(TGI).
1.35

Given `Cc1ccc(S(=O)(=O)n2cc(C#N)c(C#N)c2)cc1` , state its recorded log10(TGI).
1.62

Given `Oc1ccc(Cl)cc1Cc1cc(Cl)ccc1O` , state its recorded log10(TGI).
0.54

Given O=C1c2ccccc2C(=O)N1c1nc(-c2ccc(Cl)cc2)cc(N2N=C(c3ccc(Br)cc3)CC2c2ccccc2)n1 (configuration not stated) , state its recorded log10(TGI).
0.70

Given O=C1CC(n2cccc2)c2c(Br)sc(Br)c21 (configuration not stated) , state its recorded log10(TGI).
1.47

Given `COc1cc(NC(=O)Nc2cnc(Nc3ccc(N4CCOCC4)cc3)nc2Oc2cccc(OC)c2)cc(OC)c1` , state its recorded log10(TGI).
0.42

Given `CO[C@]1(CN2CCN3CCCC[C@@H]3C2)/C=C/C[C@H](C)[C@@H](C)S(=O)(=O)NC(=O)c2ccc3c(c2)N(C[C@@H]2CC[C@H]21)C[C@@]1(CCCc2cc(Cl)ccc21)CO3` , state its recorded log10(TGI).
0.49

Given `O=C1C=CC(=O)c2c(Cl)ccc(O)c21` , state its recorded log10(TGI).
1.52

* * *

- Tested on: HCT-116 colon
- Experimental Protocol: NCI tumour cell line growth inhibition, 48 h
Observed Property: TGI

Given `Oc1[nH]c2cc(Cl)ccc2c1/C=c1/ccc2c(c1)N=C(c1cc(F)cc(F)c1)N=2` , state its recorded TGI.
3.17 µM

Given CSC1=NCC2(S1)c1ccccc1N(C(=O)OC(C)(C)C)C2N1CCCCC1 (stereo not given) , state its recorded TGI.
> 100 µM

Given C/C=C1\C(=O)OC2CCN3CCC(COC(=O)C(C)(O)C(C)C1O)C23 (stereo not given) , state its recorded TGI.
> 100 µM

Given `CC(=O)Nc1cc(Nc2cc(=O)[nH]c(=O)[nH]2)ccc1C` , state its recorded TGI.
> 100 µM

Given `C=C1C(=O)O[C@H]2[C@H]3O[C@@H](C[C@@H]12)[C@](C)(O)CC[C@@H]1O[C@@]1(C)CCC[C@H]3C` , state its recorded TGI.
27.8 µM

Given `Cc1cc2cc3c(cc2c(-c2ccc(N)cc2)n1)OCO3` , state its recorded TGI.
> 100 µM

Given `Cc1nc(-c2cc3cc(Cl)ccc3oc2=O)cc2c1c(=O)oc1ccc(Cl)cc12` , state its recorded TGI.
> 100 µM

Given COc1cccc(NC(=O)C(=O)C(C(C)=O)c2nc3ccc(Cl)cc3[nH]c2=O)c1 (stereo not given) , state its recorded TGI.
> 100 µM

Given `NC(=O)CO/N=C1/C(c2c(O)[nH]c3ccccc23)=Nc2ccccc21` , state its recorded TGI.
> 100 µM

Given `N=C1C=C(N)C(=O)c2[nH]c(=O)ccc21` , state its recorded TGI.
2.48 µM

Given `Cc1cc([N+](=O)[O-])c(C)c(Br)c1C` , state its recorded TGI.
> 100 µM

Given CCOc1ccc(C(CN2CCOCC2)C(C)=O)cc1OC (stereo not given) , state its recorded TGI.
43.5 µM

Given CC(=O)Oc1ccc2c(c1)CC[C@@H]1C2CC[C@]2(C)C(=O)NC(=O)CC12 (stereo not given in full) , state its recorded TGI.
> 100 µM

Given N#CC1C=Cc2ccccc2N1C(=O)Oc1ccccc1 (stereo not given) , state its recorded TGI.
> 100 µM

Given CN1C(=O)C(O)CC1c1cccc(C(F)(F)F)c1 (stereo not given) , state its recorded TGI.
> 100 µM

Given `CN1CCc2c1nc(-c1ccc([N+](=O)[O-])cc1)c1c2N(C)CC1` , state its recorded TGI.
> 100 µM

Given `Cn1c2ccccc2n2c3ncccc3c(=S)c(C#N)c12` , state its recorded TGI.
> 100 µM

Given `Nc1ccc(S(=O)(=O)Nc2cnc3c(Cl)cccc3n2)cc1` , state its recorded TGI.
609 µM

Given `O=C1C=CC(=O)c2c(O)c(N3CCN(CCOCCO)CC3)c(Cl)c(O)c21` , state its recorded TGI.
801 nM [middle of 4 runs]

Given Cc1ccccc1OC(C)C(=O)NN1C(=O)CC(=O)N(c2ccccc2)C1=S (stereo not given) , state its recorded TGI.
> 100 µM

Given COc1ccccc1NC(=O)C(CC(C(=O)Nc1ccccc1OC)/C(C)=N/Nc1ccc([N+](=O)[O-])cc1[N+](=O)[O-])/C(C)=N/Nc1ccc([N+](=O)[O-])cc1[N+](=O)[O-] (stereo not given) , state its recorded TGI.
> 100 µM

Given FC1OC2OC1C(OCc1ccccc1)C(OCc1ccccc1)C2OCc1ccccc1 (stereo not given) , state its recorded TGI.
63.2 µM

Given `O=[N+]([O-])c1cccnc1-n1cnc2ccccc21` , state its recorded TGI.
> 100 µM

Given `CCOP(=O)(OCC)/C(C#N)=C/c1cccn1Cc1ccccc1` , state its recorded TGI.
39.7 µM

Given `CCN(CC)c1nc(N(C)C)c2ccccc2n1` , state its recorded TGI.
> 100 µM

Given `CC1=NN(C(=O)c2ccccc2O)C(=O)/C1=C/c1cccc([N+](=O)[O-])c1` , state its recorded TGI.
> 67.7 µM

Given C[N+](C)(C)CC1CCCC(C[N+](C)(C)C)C1O (stereo not given) , state its recorded TGI.
> 100 µM

Given `C(/Cc1ccc2c(c1)OCO2)=N\NC1=NCCCN1` , state its recorded TGI.
> 100 µM

Given C#CCN(Cc1ccc2nc(N)[nH]c(=O)c2c1)c1ccc(C(=O)NC(CCC(=O)O)C(=O)O)cc1 (stereo not given) , state its recorded TGI.
> 100 µM

Given `C/C(=N\Nc1nc2ccccc2[nH]1)c1cc2ccccc2cn1` , state its recorded TGI.
1.04 µM

Given NC1=NCC(CN2CCCC2)O1 (stereo not given) , state its recorded TGI.
> 100 µM

Given `O=C(Cc1ccccc1)NN1C(=O)/C(=C\c2ccc(O)cc2)SC1=Nc1ccccc1` , state its recorded TGI.
> 100 µM

Given CC1COCC(C)N1C1=C(Cl)C(=O)c2ccccc2C1=O (stereo not given) , state its recorded TGI.
3.01 µM

Given `O=c1cc(-c2ccccn2)[nH]c2ccc(Cl)cc12` , state its recorded TGI.
> 100 µM

Given `Cc1csc(NC(=NCCN2CCOCC2)Nc2nc(C)cs2)n1` , state its recorded TGI.
> 100 µM

Given `COc1ccc(CCN2CCc3c(C)c(C#N)c4nc5ccccc5n4c32)cc1OC` , state its recorded TGI.
> 100 µM

Given `COc1ccc(CCc2cc(OC)c(OC)c(OC)c2)cc1` , state its recorded TGI.
9.41 µM

Given `c1ccc(-c2nnn(CCN3CCCCC3)n2)cc1` , state its recorded TGI.
> 100 µM

Given `Cc1nc(N)nc2ccccc12` , state its recorded TGI.
> 100 µM

Given `Cc1ccc(/C(O)=C/c2nc3ccc([N+](=O)[O-])cc3nc2/C=C(\O)c2ccc(C)cc2)cc1` , state its recorded TGI.
> 100 µM

Given `Nc1ncnc2c1ncn2Cc1cccc(CCl)c1` , state its recorded TGI.
24.6 µM

Given `Cc1ccc(S(=O)(=O)n2cc(C#N)c(C#N)c2)cc1` , state its recorded TGI.
> 100 µM

Given COc1ccc(-c2cc(C(O)C3CCCCN3)c3ccccc3n2)cc1 (stereo not given) , state its recorded TGI.
21.5 µM

Given `CC(NC(=O)c1ccccc1)(C(=O)O)C(=O)O` , state its recorded TGI.
> 100 µM

Given `CCOC(=O)C(=O)C(=O)NN(C)C1=NCCN1` , state its recorded TGI.
> 100 µM
